Kindly supply the reported pIC50 values for the records listed here.
test system: U87MG pLVX-IDH2 R140Q-neo cells; assay: U87MG pLVX-IDH2 R140Q-neo cell based assay, 2-HG by LC-MS; details: Homo sapiens, U-87 MG
pIC50: −log10 of the molar value.

[Q] Requested field: pIC50. Item: CC(Nc1nc(Nc2ccnc(C3(C#N)CC3)c2)nc(-n2ccc(C(F)(F)F)n2)n1)C(F)(F)F (centres unmarked)
[A] > 7.30

[Q] Requested field: pIC50. Item: `CC(C)(C)Nc1nc(Nc2ccnc(C(C)(F)F)c2)nc(-c2nccc(C(F)(F)F)n2)n1`
[A] > 7.30

[Q] Requested field: pIC50. Item: c1ccc(-c2nc(NC3C4COCC43)nc(NC3C4COCC43)n2)cc1 (centres unmarked)
[A] 7.00 to 7.30

[Q] Requested field: pIC50. Item: `N#Cc1cc(Nc2nc(NC3CC(F)(F)C3)nc(-c3cccc(C(F)(F)F)n3)n2)ccn1`
[A] > 7.30

[Q] Requested field: pIC50. Item: `CC(F)(F)c1cccc(-c2nc(Nc3ccnc(C4(C#N)CC4)c3)nc(NC3CC(F)(F)C3)n2)n1`
[A] > 7.30

[Q] Requested field: pIC50. Item: `CC(F)(F)c1cc(Nc2nc(NC3CCC(F)(F)CC3)nc(-c3cccc(C(F)(F)F)n3)n2)ccn1`
[A] > 7.30

[Q] Requested field: pIC50. Item: `CC(C)(O)CNc1nc(Nc2cccc(Cl)c2)nc(-c2cccc(C(F)(F)F)n2)n1`
[A] > 7.30

[Q] Requested field: pIC50. Item: CC(C#N)Nc1nc(Nc2ccnc(C(C)(F)F)c2)nc(-c2cccc(C(F)(F)F)n2)n1 (centres unmarked)
[A] > 7.30

----------
Target: IDH1 wt/IDH1 R132H heterodimer (Homo sapiens (Human), UniProt O75874, R132H)
Sequence (O75874 whole entry R132H): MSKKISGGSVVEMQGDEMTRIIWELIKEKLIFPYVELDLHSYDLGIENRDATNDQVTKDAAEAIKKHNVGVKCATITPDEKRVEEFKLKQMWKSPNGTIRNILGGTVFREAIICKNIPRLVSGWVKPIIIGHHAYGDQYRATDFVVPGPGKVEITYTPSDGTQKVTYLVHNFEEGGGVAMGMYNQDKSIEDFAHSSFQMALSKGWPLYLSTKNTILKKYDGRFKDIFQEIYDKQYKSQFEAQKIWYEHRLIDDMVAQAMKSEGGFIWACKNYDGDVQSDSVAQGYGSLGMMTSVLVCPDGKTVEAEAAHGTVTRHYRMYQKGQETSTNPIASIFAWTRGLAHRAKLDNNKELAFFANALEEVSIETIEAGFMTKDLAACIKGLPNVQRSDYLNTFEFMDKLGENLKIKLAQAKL
Sequence (O75874 whole entry, stated change not applied): as the sequence (O75874 whole entry R132H) above, with H132R counted along it
Test: In vitro assay for IDH1m R132H inhibitors, IDH1 wt/IDH1 R132H heterodimer, NADPH depletion (diaphorase/resazurin)
Assay type: biochemical
Settings: IDH1 wt/IDH1 R132H heterodimer, 300 μM NADP (saturated); read-out: IDH1 wt/R132H NADPH/NADP IC50 saturated
Method: The following describes the experimental procedures that can be used to obtain data on columns 2 and 4 of Table 4 and column 2 of Table 5. In the primary reaction, the reduction of α-KG acid to 2-HG is accompanied by a concomitant oxidation of NADPH to NADP. The amount of NADPH remaining at the end of the reaction time is measured in a secondary diaphorase/resazurin reaction in which the NADPH is consumed in a 1:1 molar ratio with the conversion of resazurin to the highly fluorescent resorufin. […]
pIC50: −log10 of the molar value.
reported_metric: pIC50

[Q] Notebook entry, IDH1 wt/IDH1 R132H heterodimer (Homo sapiens (Human), UniProt O75874, R132H) assay: pIC50 of N#CC1(c2cc(Nc3nc(NC4CCC(F)(F)CC4)nc(-c4cncc(C(F)(F)F)n4)n3)ccn2)CC1 [Compound 394] = ?
[A] > 7.30

[Q] Notebook entry, IDH1 wt/IDH1 R132H heterodimer (Homo sapiens (Human), UniProt O75874, R132H) assay: pIC50 of CC(Nc1nc(NC(C)C(F)(F)F)nc(-c2nc(C(F)(F)F)cs2)n1)C(F)(F)F (centres unmarked) [Compound 404] = ?
[A] > 7.30

[Q] Notebook entry, IDH1 wt/IDH1 R132H heterodimer (Homo sapiens (Human), UniProt O75874, R132H) assay: pIC50 of FC1(F)CCC(Nc2nc(Nc3cncc(C(F)(F)F)c3)nc(-c3cccc(C(F)(F)F)n3)n2)C1 (centres unmarked) [Compound 405] = ?
[A] 7.00 to 7.30

[Q] Notebook entry, IDH1 wt/IDH1 R132H heterodimer (Homo sapiens (Human), UniProt O75874, R132H) assay: pIC50 of CC(F)(F)c1cccc(-c2nc(Nc3ccnc(C4(C#N)CC4)c3)nc(NC3CCC(F)(F)C3)n2)n1 (centres unmarked) [Compound 384] = ?
[A] > 7.30

[Q] Notebook entry, IDH1 wt/IDH1 R132H heterodimer (Homo sapiens (Human), UniProt O75874, R132H) assay: pIC50 of C[C@H](Nc1nc(Nc2ccnc(C(F)(F)F)c2)nc(-n2ccc(C(F)(F)F)n2)n1)C(F)(F)F [Compound 356] = ?
[A] > 7.30

Data origin, for the record: patent US10028961B2
